B1: Twister Ribozyme (parent)
chain: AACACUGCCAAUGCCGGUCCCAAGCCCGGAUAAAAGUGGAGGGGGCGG

# Variants of: B1
# MEASUREMENT_PROTOCOL: self-cleavage, relative activity (ratio to wild type); higher = more cleavage; co-transcriptional
The label depends only on self-cleavage: TRUE if it is at least 0.3, FALSE if it is smaller.

Hi team, for C19A G29A , is the recorded self-cleavage at or above 0.3?
FALSE

Is reported self-cleavage greater than or equal to 0.3 here: A4C G47A
FALSE

Does A35G G44A have a reported self-cleavage of at least 0.3?
TRUE

Could you verify whether the entry A22U C25A shows self-cleavage of no less than 0.3?
FALSE

Quick check, self-cleavage >= 0.3? U6C U31A
TRUE

Would you say A23G A35C shows self-cleavage at minimum 0.3?
TRUE

Does the reported self-cleavage for C5G G16A fall at or above the 0.3 mark?
TRUE

Say whether C15A U37G shows self-cleavage of 0.3 or more.
FALSE

Does the variant A1U G24A have recorded self-cleavage that is 0.3 or more?
FALSE

Is self-cleavage at least 0.3? Consider G16U G44U
TRUE

Form field: self-cleavage at least 0.3? Entry: U18G A23U
FALSE

Does self-cleavage meet or surpass 0.3 for C25U A33U ?
TRUE

Would you say A11C A23U shows self-cleavage at minimum 0.3?
FALSE

Determine whether measured self-cleavage meets or exceeds 0.3 for U37A G48A
TRUE

Is self-cleavage for G28U G38C at or above 0.3?
TRUE

API: above_or_equal(metric=self-cleavage, cutoff=0.3) for item C19A G43C
TRUE

Does the reported self-cleavage for C15G G48C fall at or above the 0.3 mark?
FALSE

hey, is self-cleavage for this one >= 0.3? C3U G17A
FALSE

Exam item: decide whether the reported self-cleavage for A34G A40C is at least 0.3.
FALSE

API: above_or_equal(metric=self-cleavage, cutoff=0.3) for item G16U G48C
TRUE

Decide: is the reported value of self-cleavage for A33U G45A equal to or greater than 0.3?
TRUE

Item G16A G38C with self-cleavage of 0.3 or above?
TRUE

Is self-cleavage for A4G A40U at or above 0.3?
FALSE

// inclusive: self-cleavage at least 0.3? input: U31A G38A
TRUE

Form field: self-cleavage at least 0.3? Entry: G16C G48A
TRUE

Evaluate G29A C46A : self-cleavage at minimum 0.3?
TRUE

Decide: is the reported value of self-cleavage for C9A G36U equal to or greater than 0.3?
FALSE

Item A4U C15U with self-cleavage of 0.3 or above?
FALSE

hey, is self-cleavage for this one >= 0.3? A2U G38C
FALSE

Decide: is the reported value of self-cleavage for A23C U31G equal to or greater than 0.3?
FALSE

Given the entry G13A C19U , answer whether its self-cleavage meets or surpasses 0.3.
FALSE

Quick check: does A35C G36C have self-cleavage greater than or equal to 0.3?
TRUE

Hi, just wondering whether C19G G39A shows self-cleavage of 0.3 or higher.
FALSE

Tell me whether self-cleavage is at least 0.3 here: A10U C26A
TRUE

Quick check: does U18G G36C have self-cleavage greater than or equal to 0.3?
FALSE

Evaluate G29A G47U : self-cleavage at minimum 0.3?
TRUE

Quick check: does A1C C9U have self-cleavage greater than or equal to 0.3?
FALSE

Please tell me: is the variant C9U G16U at or over 0.3 in terms of self-cleavage?
TRUE

Does the reported self-cleavage for C14G A30G fall at or above the 0.3 mark?
FALSE

Given the entry A10C U31C , answer whether its self-cleavage meets or surpasses 0.3.
TRUE

# bool: self-cleavage of U12G G13A >= 0.3
TRUE

Does the variant A30G G47U have recorded self-cleavage that is 0.3 or more?
TRUE

Could you verify whether the entry G24C shows self-cleavage of no less than 0.3?
FALSE

Item A4G U31C with self-cleavage of 0.3 or above?
TRUE

Quick check, self-cleavage >= 0.3? C3G U18A
FALSE

Reference source: the RNAGym collection of RNA variant scans (doi:10.7554/elife.80360)
